Assay: in vivo
Details: Dutch Belted, rabbit
Each record here notes measured concentration at 29 days.
measure.name: concentration at 29 days (ng/mL)

In [3]: df
Out[3]:
                                   compound              measure_name  recorded_value
0  COC(=O)c1ccc2c(c1)NC(=O)/C2=C(\Nc1ccc(N(C)C(=O)CN2CCN(C)CC2)cc1)c1ccccc1 [Nintedanib]  concentration at 29 days           0.252
1  COc1cc2nccc(Oc3ccc(NC(=O)NC4CC4)c(Cl)c3)c2cc1C(N)=O [Lenvatinib]  concentration at 29 days            4.94

// data source = patent US20200345637A1
